The reported numbers originate from patent US20200255503A1.

Biological target: natural Fel d1 (cat (Felis domesticus)) (UniProt P30438)
Experiment: SPR, mAb captured, nFel d1 injected, 25 C
READOUT_LABEL: koff (s⁻¹)
Only the number, expressed in s⁻¹, is required.

Below, each entry is followed by its recorded koff result.
| BINDER | UNIT_ABBREV | koff |
| --- | --- | --- |
| H4H2797P (antibody, human IgG4, V domains shown) VH: QVQLVESGGGVVLPGRSLRLSCAASGFTFSSYLMYWVRQAPGKGLEWVAVIWYDGSNKFYGDSVKGRFTISRDNSKNTLYLQMNSLRAEDTAVYYCARDNGNSGYEDSWNAFDIWGQGTMVTVSS VL: DIQMTQSPSSLSASVGDRVTITCRASQDIYNYLAWFQQKPGKAPKSLIYAASSLQTGVPSQFSGSGSGTDFTLTISSLQPEDFATYYCQQYNNYPFTFGPGTKVDIK | s⁻¹ | 0.00713 |
| H2M1236N (antibody, mouse IgG2, V domains shown) VH: QVQLQESGPGLVKPSETLSLTCTVSGGSISNYYWSWIRQPPGKGLEWIGYIYYSGRTNYNPSLKSRVTISVDTSKNQFSLKLRSVTAADTAVYYCARHRITRTADSFDYWGQGTLVTVSS VL: DIQMTQSPSSLSASVGDRVTITCQASQDITNYLNWYQQKPGKAPKLLIYDASNLETGVPSRFSGSGSGTDFTFTISSLQPEDVATFYCHQYGDLPYTFGQGTKLEIK | s⁻¹ | 0.00142 |
| H1M1241N (antibody, V domains shown) VH: EVQLVESGGGLVKPGGSLRLSCAASGFTFSSYSMNWVRQAPGKGLEWVSSISSRSSYIYYADSVKGRFTISRDNAKNSLYLQMNSLRAEDTAVYYCARDHIVVVPGASYYYYGMDVWGQGTTVTVSS VL: DIQMTQSPSSLSASVGDRVTITCRASQGIRNDLGWYQQKPGKAPKRLISAASSLQSGVPSRFSGSGSGTEFTLTISSLQPEDFATYYCLQHNSYPLTFGGGTKVEIK | s⁻¹ | 0.000662 |

Please look at the following binder next.
Enquiry: Check the records and state koff for H1M1230N (antibody, V domains shown) VH: EVQLVESGGGLVQPGGSLRLSCTASGFIFSNFWMTWVRQAPGKGLEWVANIKQDGSETYCVDSVKGRFTISRDHAKNSLFLQMNSLRAEDTAVYYCARGAGTIYYYGMDVWGQGTTVIVSS VL: DIQMTQSPSSVSASVGDRLTITCRASQDISSWLTWYQQKPGKAPNLLIYAASGLQSGVPSRFSGSGSGTDFTLTISNLQPEDFATYYCQQANSFPLTFGQGTRLEIK
Return: 0.000869
